// provenance: patent US20250051346A1

Molecular target: 5-HT2A (Homo sapiens)
Sequence (P28223 whole entry): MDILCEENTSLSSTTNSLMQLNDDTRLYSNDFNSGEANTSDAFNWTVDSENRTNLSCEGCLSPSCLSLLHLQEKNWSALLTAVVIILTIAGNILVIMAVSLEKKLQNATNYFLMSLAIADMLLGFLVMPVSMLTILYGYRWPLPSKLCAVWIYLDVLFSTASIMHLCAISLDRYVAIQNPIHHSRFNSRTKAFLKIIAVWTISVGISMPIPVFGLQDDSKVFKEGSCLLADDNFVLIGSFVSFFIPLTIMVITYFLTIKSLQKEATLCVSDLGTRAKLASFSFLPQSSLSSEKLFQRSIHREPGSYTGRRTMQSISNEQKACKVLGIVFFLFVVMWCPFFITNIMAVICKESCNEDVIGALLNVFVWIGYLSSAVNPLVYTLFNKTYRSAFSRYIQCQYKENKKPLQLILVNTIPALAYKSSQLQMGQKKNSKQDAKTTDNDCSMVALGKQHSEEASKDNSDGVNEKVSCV
Experiment: Serotonin 5-HT2A in vitro cellular IPOne agonism assay
Type: cell-based
Parameters: host or cells: CHO-K1
Conditions: benzofurans; CHO-K1 cells, 60 min
pEC50: −log10 of the molar value.
property: pEC50

Worked cases, answers included:
Entry FC(F)(F)CN1CCc2oc3ccccc3c2CC1 — recorded pEC50 = < 5.00

pEC50 reading for FC(F)(F)Oc1ccc2c3c(oc2c1)CCCNC3 : 5.00 to 6.00

List reported pEC50 for each of these molecules:
1. CN1CCCc2oc3cccc(OCc4ccccc4)c3c2C1
2. CN1CCCc2oc3cccc(F)c3c2C1
3. Fc1cccc2oc3c(c12)CCN(CC(F)(F)F)CC3

# output
< 5.00
< 5.00
5.00 to 6.00

The measured pEC50 associated with COc1cccc2oc3c(c12)CCN(C1CCC1)CC3 reads 5.00 to 6.00
